assay: toxicity test, LD50; settings: mouse, in vivo, iv; administered intravenously; read-out: LD50 (mg/kg) in Mice

Compound	Result operator	LD50, mg/kg
CCCCCCCCCCCC(=O)NCCCCC(=O)N[C@@H](Cc1c[nH]c2ccccc12)C(=O)N[C@H](CC(N)=O)C(=O)N[C@@H](CC(=O)O)C(=O)N[C@@H]1C(=O)NCC(=O)N[C@@H](CCCN)C(=O)N[C@@H](CC(=O)O)C(=O)N[C@H](C)C(=O)N[C@@H](CC(=O)O)C(=O)NCC(=O)N[C@H](CO)C(=O)N[C@@H]([C@H](C)CC(=O)O)C(=O)N[C@@H](CC(=O)c2ccccc2N)C(=O)O[C@@H]1C [Compound 2]	>	600
CCCCCCCCCCCC(=O)N[C@@H](Cc1c[nH]c2ccccc12)C(=O)N[C@@H](Cc1c[nH]c2ccccc12)C(=O)N[C@H](CC(N)=O)C(=O)N[C@@H](CC(=O)O)C(=O)N[C@@H]1C(=O)NCC(=O)N[C@@H](CCCN)C(=O)N[C@@H](CC(=O)O)C(=O)N[C@H](C)C(=O)N[C@@H](CC(=O)O)C(=O)NCC(=O)N[C@H](CO)C(=O)N[C@@H]([C@H](C)CC(=O)O)C(=O)N[C@@H](CC(=O)c2ccccc2N)C(=O)O[C@@H]1C [Compound 24]	=	450
CCCCCCCCCCCC(=O)N[C@@H](Cc1ccccc1)C(=O)N[C@@H](Cc1c[nH]c2ccccc12)C(=O)N[C@H](CC(N)=O)C(=O)N[C@@H](CC(=O)O)C(=O)N[C@@H]1C(=O)NCC(=O)N[C@@H](CCCN)C(=O)N[C@@H](CC(=O)O)C(=O)N[C@H](C)C(=O)N[C@@H](CC(=O)O)C(=O)NCC(=O)N[C@H](CO)C(=O)N[C@@H]([C@H](C)CC(=O)O)C(=O)N[C@@H](CC(=O)c2ccccc2N)C(=O)O[C@@H]1C [Compound 8]	=	250
